# target under test: 5-hydroxytryptamine receptor 4 (Cavia porcellus, UniProt O70528)
# Sequence (O70528 whole entry): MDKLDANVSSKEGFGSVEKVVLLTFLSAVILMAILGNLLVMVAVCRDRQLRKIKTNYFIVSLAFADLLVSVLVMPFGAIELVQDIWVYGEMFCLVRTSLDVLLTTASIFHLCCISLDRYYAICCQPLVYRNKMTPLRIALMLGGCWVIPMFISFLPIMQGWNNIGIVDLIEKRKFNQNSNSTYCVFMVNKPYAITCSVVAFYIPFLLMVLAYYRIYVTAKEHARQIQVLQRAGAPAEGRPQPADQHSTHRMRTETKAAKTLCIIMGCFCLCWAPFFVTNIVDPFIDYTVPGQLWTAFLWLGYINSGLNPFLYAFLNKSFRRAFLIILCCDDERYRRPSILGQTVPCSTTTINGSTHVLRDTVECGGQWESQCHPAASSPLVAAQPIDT
# test name: Agonist activity at 5HT4 receptor in guinea pig colon assessed as longitudinal muscle plexus contraction
parameter measured: pEC50
Would you please state pEC50, meaning minus log10 of the concentration in mol/L, as a bare number?

INPUT: Form: Entry = CCCCCNC(=N)N/N=C/c1c[nH]c2ccc(OC)cc12 [TEGASEROD] | System = 5-hydroxytryptamine receptor 4 (Cavia porcellus, UniProt O70528) | pEC50 = ____
OUTPUT: 8.20

INPUT: Same question, CC(=O)N1CCN(CCN2[C@@H]3CC[C@H]2C[C@@H](NC(=O)c2nn(C(C)C)c4ccccc24)C3)CC1 this time
OUTPUT: 8.00
